- assay-comment: Cytotoxicity against human L02 cells assessed as cell growth inhibition at 100 uM after 48 hrs by MTT assay
- Type: toxicity, cell-based
- measurement-context: read-out: GI
# cutoff 30% applies to inhibition at 48 h, 100 µM; >= gives Criterion met, < gives Criterion not met

Answered examples (4):
molecule-smiles	assigned-label
COc1cc(OC)cc(/C(C#N)=C/c2c(C)cc(C)cc2C)c1	Criterion not met
COc1cc(OC)cc(/C(C#N)=C/c2ccc(C)cc2)c1	Criterion not met
COc1cc(OC)cc(/C(C#N)=C/c2cccc(F)c2)c1	Criterion met
COc1cc(OC)cc(/C(C#N)=C/c2ccc(OCc3ccccc3)cc2)c1	Criterion met

hey, is inhibition at 48 h, 100 µM for this one >= 30%? `COc1cc(OC)cc(/C(C#N)=C/c2ccco2)c1`
Criterion met

Is inhibition at 48 h, 100 µM at least 30%? Consider `COc1cc(OC)cc(/C(C#N)=C/c2ccc(OCC(C)C)cc2)c1`
Criterion not met

Form field: inhibition at 48 h, 100 µM at least 30%? Entry: `COc1cc(OC)cc(/C(C#N)=C/c2cc(OC)c(OC)c(OC)c2)c1`
Criterion not met

Determine whether this compound has inhibition at 48 h, 100 µM no lower than 30%: `COc1cc(OC)cc(/C(C#N)=C/c2cccc(Br)c2)c1`
Criterion met

For this compound, is measured inhibition at 48 h, 100 µM 30% or higher? `COc1cc(OC)cc(/C(C#N)=C/c2ccc(C(F)(F)F)cc2)c1`
Criterion not met

Record `COc1cc(OC)cc(/C(C#N)=C/c2ccc(F)cc2)c1` ; criterion: inhibition at 48 h, 100 µM no lower than 30%. Met?
Criterion not met

Has `COc1cc(OC)cc(/C(C#N)=C/c2ccccc2)c1` a recorded inhibition at 48 h, 100 µM greater than or equal to 30%?
Criterion met

Does the reported inhibition at 48 h, 100 µM for `COc1cc(OC)cc(/C(C#N)=C/c2ccc(Br)cc2)c1` fall at or above the 30% mark?
Criterion met

Textbook exercise: given the entry `COc1cc(OC)cc(/C(C#N)=C/c2ccccc2Br)c1` , state whether its inhibition at 48 h, 100 µM is greater than or equal to 30%.
Criterion not met

Could you please find out whether `COc1cc(OC)cc(/C(C#N)=C/c2ccc(Cl)cc2)c1` has inhibition at 48 h, 100 µM that meets 30% or exceeds it?
Criterion met

# bool: inhibition at 48 h, 100 µM of `COc1cccc(/C=C(\C#N)c2cc(OC)cc(OC)c2)c1` >= 30%
Criterion not met

Threshold query (inhibition at 48 h, 100 µM >= 30%) on `COc1cc(OC)cc(/C(C#N)=C/c2c(F)cccc2Cl)c1`
Criterion met

Is inhibition at 48 h, 100 µM for `CCCCOc1ccc(/C=C(\C#N)c2cc(OC)cc(OC)c2)cc1` at or above 30%?
Criterion met

Kindly determine if inhibition at 48 h, 100 µM recorded for `COc1cc(OC)cc(/C(C#N)=C/c2cccs2)c1` is above or exactly 30%.
Criterion met

# bool: inhibition at 48 h, 100 µM of `CCOc1ccc(/C=C(\C#N)c2cc(OC)cc(OC)c2)cc1` >= 30%
Criterion met

Is reported inhibition at 48 h, 100 µM greater than or equal to 30% here: `COc1cc(OC)cc(/C(C#N)=C/c2ccccc2C(F)(F)F)c1`
Criterion met

Please tell me: is the compound `COc1cc(OC)cc(/C(C#N)=C/c2ccc(N(C)C)cc2)c1` at or over 30% in terms of inhibition at 48 h, 100 µM?
Criterion not met

Please tell me: is the compound `CCCOc1ccccc1/C=C(\C#N)c1cc(OC)cc(OC)c1` at or over 30% in terms of inhibition at 48 h, 100 µM?
Criterion not met

Would you say `CCCOc1ccc(/C=C(\C#N)c2cc(OC)cc(OC)c2)cc1` shows inhibition at 48 h, 100 µM at minimum 30%?
Criterion met

###

- Test system: Bel-7402
- assay-comment: Selectivity index, ratio of IC50 for human L02 cells to IC50 for human Bel7402 cells
- Assay type: functional
measure-name: Ratio IC50

Some entries whose results are on file:
molecule-smiles	target-system	measure-name	val
COc1cc(OC)cc(/C(C#N)=C/c2cccs2)c1	Bel-7402	Ratio IC50	>2.73
COc1cc(OC)cc(/C(C#N)=C/c2cccc3ccccc23)c1	Bel-7402	Ratio IC50	2.78
COc1cc(OC)cc(/C(C#N)=C/c2ccc(C)cc2)c1	Bel-7402	Ratio IC50	>169.49

--- query ---
Provide the reported Ratio IC50 (system: Bel-7402) for `CC(=O)O[C@H]1C(=O)[C@@]2(C)[C@H]([C@H](OC(=O)c3ccccc3)[C@]3(O)C[C@H](OC(=O)[C@H](O)[C@@H](NC(=O)c4ccccc4)c4ccccc4)C(C)=C1C3(C)C)[C@]1(OC(C)=O)CO[C@@H]1C[C@@H]2O`
>1000

###

List of Ratio IC50 values.
- System: HCT-116
- assay-comment: Selectivity index, ratio of IC50 for human L02 cells to IC50 for human HCT116 cells
- Assay type: functional

Worked examples, 5 compounds total:
molecule-smiles	measure-name	val
COc1cc(OC)cc(/C(C#N)=C/c2ccc(Cl)cc2)c1	Ratio IC50	>2.31
CCOc1ccc(/C=C(\C#N)c2cc(OC)cc(OC)c2)cc1	Ratio IC50	>769.23
COc1cc(OC)cc(/C(C#N)=C/c2ccc(C)cc2)c1	Ratio IC50	>50
CCCOc1ccc(/C=C(\C#N)c2cc(OC)cc(OC)c2)cc1	Ratio IC50	>7.06
COc1cc(OC)cc(/C(C#N)=C/c2ccccc2Br)c1	Ratio IC50	>11.84

For HCT-116, give the measured Ratio IC50 of the entry `CCc1ccc(/C=C(\C#N)c2cc(OC)cc(OC)c2)cc1`
>76.92

With HCT-116 as the test system, provide measured Ratio IC50 for this compound: `COc1cc(OC)cc(/C(C#N)=C/c2ccccn2)c1`
14.66

Give reported Ratio IC50 for `COc1cc(OC)cc(/C(C#N)=C/c2cccs2)c1` (HCT-116)
>3.16

###

- assay-comment: Cytotoxicity against human Bel7402 cells assessed as cell growth inhibition at 100 uM after 48 hrs by MTT assay
- Format: functional
- measurement-context: Bel-7402, 48 h, read-out: GI
Label scheme for inhibition of growth at 100 µM: b0 (below 10%), b1 (10% to below 20%), b2 (20% or more)

molecule-smiles	assigned-label
COc1cc(OC)cc(/C(C#N)=C/c2ccc(OCc3ccccc3)cc2)c1	b1

For the record `COc1cc(OC)cc(/C(C#N)=C/c2ccccc2C(F)(F)F)c1` , report the class its inhibition of growth at 100 µM corresponds to.
b1

Band assignment needed for `COc1cc(OC)cc(/C(C#N)=C/c2ccccc2)c1` please.
b2

State the class of the compound shown: `COc1cc(OC)cc(/C(C#N)=C/c2ccccc2Br)c1`
b1

// return the class label for `COc1cc(OC)cc(/C(C#N)=C/c2c(C)cc(C)cc2C)c1`
b1

Categorize the following entry: `CCCCOc1ccc(/C=C(\C#N)c2cc(OC)cc(OC)c2)cc1`
b1

# classify by inhibition of growth at 100 µM band: `CCCOc1ccccc1/C=C(\C#N)c1cc(OC)cc(OC)c1`
b0

###

- assay-comment: Cytotoxicity against human Bel7402 cells assessed as cell growth inhibition after 48 hrs by MTT assay
- Assay type: functional, cell-based
- measurement-context: Bel-7402, 48 h
pIC50: −log10 of the molar value.
Binary classification by pIC50, with 4 as an inclusive lower bound for satisfied; all other cases are not satisfied.

molecule-smiles	assigned-label
COc1cc(OC)cc(/C(C#N)=C/c2ccccc2F)c1	satisfied

Threshold query (pIC50 >= 4) on `COc1cc(OC)cc(/C(C#N)=C/c2cc(OC)c(OC)c(OC)c2)c1`
not satisfied

Dear colleague, could you confirm whether `COc1cc(OC)cc(/C(C#N)=C/c2ccco2)c1` has pIC50 at or above 4?
satisfied

Check if pIC50 >= 4 (inclusive). Item: `COc1cc(OC)cc(/C(C#N)=C/c2ccccc2C(F)(F)F)c1`
not satisfied

Check the entry `COc1cc(OC)cc(/C(C#N)=C/c2ccc(Cl)cc2)c1` : does pIC50 equal or exceed 4?
satisfied

Given the entry `Oc1ccc(/C=C/c2cc(O)cc(O)c2)cc1` , answer whether its pIC50 meets or surpasses 4.
not satisfied

###

- assay-comment: Cytotoxicity against human L02 cells assessed as cell growth inhibition at 100 uM after 48 hrs by MTT assay
- Format: toxicity, cell-based
- measurement-context: read-out: GI
# maps each entry to its inhibition at 48 h, 100 µM
Express it in %; write the number only.

Example entries and their recorded answers appear below.
molecule-smiles	inhibition at 48 h, 100 µM (%)
COc1cc(OC)cc(/C(C#N)=C/c2ccccc2F)c1	34.6
CCc1ccc(/C=C(\C#N)c2cc(OC)cc(OC)c2)cc1	32.8
CCOc1cccc(/C=C(\C#N)c2cc(OC)cc(OC)c2)c1	18.5

Give the value of inhibition at 48 h, 100 µM reported for the following: `COc1cc(OC)cc(/C(C#N)=C/c2ccccc2Cl)c1`
11.8

Each recorded value in this set is attributed to ChEMBL document CHEMBL3872241.
